pIC50: −log10 of the molar value.
The following molecules each carry a recorded pIC50 for PHD2 (Homo sapiens (Human), UniProt Q9GZT9).

Data point: N#Cc1ccc(CNC(=O)c2ncc3nc(N4C[C@@H]5C[C@H]4CN5C4CC4)ccc3c2O)c(Cl)c1 ; pIC50 = 7.70 to 8.30

Data point: CC(C)(C)OC(=O)N1CC2(C1)CN(c1ccc3c(O)c(C(=O)NCc4ccc(C#N)nc4)ncc3n1)C2 ; pIC50 = > 8.30

Data point: CC(C)(C)OC(=O)N1C[C@@H]2C[C@H]1CN2c1ccc2c(O)c(C(=O)NCc3ccc(C#N)nc3)ncc2n1 ; pIC50 = > 8.30

Data point: CN1C[C@@H]2C[C@H]1CN2c1ccc2c(O)c(C(=O)NCc3ccc(C#N)cc3Cl)ncc2n1 ; pIC50 = > 8.30

Data point: CN1CCC2(CCN(c3ccc4c(O)c(C(=O)NCc5ccc(C#N)nc5)ncc4n3)CC2)C1=O ; pIC50 = > 8.30
